// provenance: patent US20220112288A1

tgt: T1, Recombinant human CD4 (R&D Systems, Cat. 10327-CD) (human, UniProt P01730 26-390, limits assumed)
T1 construct: Bought reagent; also called huCD4
assay_protocol: BLI Octet, non-clonal supernatant on AMC sensor, 100 nM human CD4, 1:1 local fit;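 further: Single-concentration kinetics per supernatant, with the 1:1 model fitted across both the association and dissociation phases of the sensorgram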
metric: koff (s⁻¹)
Quick note: give the figure in s⁻¹, leave out the unit.

Give a short answer stating reported koff for 75110_01A06A (antibody, V domains shown, Tested as non-clonal AlivaMab Mouse Kappa hybridoma supernatant, captured by anti-mouse IgG Fc sensor) VH: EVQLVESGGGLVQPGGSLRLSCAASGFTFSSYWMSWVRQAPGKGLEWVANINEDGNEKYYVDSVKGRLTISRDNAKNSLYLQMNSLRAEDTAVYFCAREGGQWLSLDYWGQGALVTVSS VL: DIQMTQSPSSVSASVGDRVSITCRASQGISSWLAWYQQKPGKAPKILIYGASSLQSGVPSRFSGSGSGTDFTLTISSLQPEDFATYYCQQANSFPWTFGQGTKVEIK .
0.0013
